Where do the numbers come from? From ChEMBL document CHEMBL1201862.

- Test system: COLO 205
- Method notes: NCI tumour cell line growth inhibition, 48 h
Active and inactive are the calls of the source. Cut-off read from the data, not from the text of the source: active = GI50 up to about 1.1 µM and inactive = higher.
Parameter call: string, one of active, inactive

Short answer needed: outcome of this test for CN(CCNC(=O)c1nn(-c2ccccc2)c2c1Cc1ccccc1-2)CCNC(=O)c1nn(-c2ccccc2)c2c1Cc1ccccc1-2 ?
inactive

Then this compound: O=c1c2ccccc2oc2ccccc12.Oc1cccc2cccnc12
inactive

Then this compound: O=C(O)CCC(NC(=O)c1ccc(Nc2nc3ccc(C(F)(F)F)cc3nc2-c2ccccc2)cc1)C(=O)O (stereo unspecified)
inactive

Then this compound: Nc1ccccc1-c1noc(=O)[nH]1
inactive

Then this compound: CC(=O)OC1c2ccccc2CC2(OC(C)=O)c3ccccc3C12 (stereo unspecified)
inactive

Then this compound: O=c1c2c3c(sc2nc2n1N=CN(c1ccccc1)C2)CCCC3
inactive

Then this compound: O=[N+]([O-])c1cc(Cl)ccc1OCc1ccccc1
inactive

Then this compound: C1=C(c2ccccc2)C(N2CCOCC2)Oc2ccccc21 (stereo unspecified)
inactive

Then this compound: CN1CCN(CCSC2Cc3cc(Cl)ccc3Sc3ccccc32)CC1 (stereo unspecified)
inactive

Then this compound: COc1c2c3c4c(c(OC)c(=O)c5c(O)cc(OC)c(c6c(OC)cc(O)c(c1=O)c63)c54)C(C(C)O)C2C(C)=O (stereo unspecified)
active

Then this compound: O=C(O)CS
inactive
